target: human chemokine receptor 2 isoform B (CCR2) (Homo sapiens); assay: Calcium mobilization assay (FLIPR, MCP-1 stimulated CHOK1-CCR2B-A5 cells); conditions: Ca mobilisation assay, CCR2 antagonist activity, inhibition of MCP-1 induced calcium increase
Sequence (P41597 1-360 isoform P41597-2): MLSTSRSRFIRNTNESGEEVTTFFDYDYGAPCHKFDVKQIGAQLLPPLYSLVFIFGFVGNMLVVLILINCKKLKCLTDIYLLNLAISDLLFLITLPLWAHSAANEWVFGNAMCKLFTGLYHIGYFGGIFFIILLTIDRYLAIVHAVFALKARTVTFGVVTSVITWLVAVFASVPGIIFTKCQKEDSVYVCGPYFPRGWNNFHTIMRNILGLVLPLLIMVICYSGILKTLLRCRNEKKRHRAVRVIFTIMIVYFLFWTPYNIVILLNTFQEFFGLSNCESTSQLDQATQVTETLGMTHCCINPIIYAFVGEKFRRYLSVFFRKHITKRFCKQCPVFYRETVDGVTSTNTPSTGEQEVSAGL
pIC50: −log10 of the molar value.
observable: pIC50

Some entries whose results are on file:
COC[C@H](CCN1CCC2(CC2)[C@H](O)C1)N1CCN(C(=O)Nc2ccc(Cl)c(Cl)c2)CCC1=O [Example 56] ... 8.70
O=C1CCN(C(=O)Nc2ccc(Cl)c(Cl)c2)[C@H](c2ccccc2)CN1CCCN1CCCCC1 [Example 30] ... 6.02
C[C@H]1C(=O)N(CCCCN2CCC3(CC3)[C@H](O)C2)CCN1C(=O)Nc1cccc(C(F)(F)F)c1 [Example 89] ... 7.60
C[C@H]1C(=O)N([C@H](CO)CCN2CCC3(CC3)[C@H](O)C2)CCN1C(=O)Nc1cccc(Cl)c1 [Example 107] ... 8.70
C[C@H]1C(=O)N([C@@H](CCN2CCCCC2)COC(=O)Nc2ccc(Cl)c(Cl)c2)CCN1C(=O)Nc1ccc(Cl)c(Cl)c1 [Example 86] ... 6.72

[A] C[C@H]1C(=O)N([C@H](CO)CCN2CCC3(CC3)[C@H](O)C2)CCN1C(=O)Nc1ccc(Cl)c(Cl)c1 [Example 106]
[B] COCC(CCN1CCC2(CC2)[C@H](O)C1)N1CC(C)N(C(=O)Nc2cccc(Cl)c2)CCC1=O (stereo in doubt) [Example 65]
[C] C[C@H]1C(=O)N(CCCN2CCC3(CC3)[C@H](O)C2)CCN1C(=O)Nc1ccc2ccccc2c1 [Example 75]
# desc sort on pIC50 across 3 compounds Answer format: the labels, ordered as requested.
A, C, B

[P] C[C@H]1C(=O)N(CCCN2CCC3(CC3)[C@H](O)C2)CCN1C(=O)Nc1ccc(Cl)cc1 [Example 72]
[Q] C[C@H]1C(=O)N(CCCCN2CCC3(CC3)[C@H](O)C2)CCN1C(=O)Nc1ccc(C(F)(F)F)cc1 [Example 88]
[R] C[C@H]1C(=O)N(CCCCN2CCC3(CC3)[C@H](O)C2)CCN1C(=O)Nc1ccc(C(F)(F)F)cn1 [Example 99]
List the 3 entries from lowest pIC50 to highest pIC50 value. Answer format: the labels, ordered as requested.
Q, R, P

[1] C[C@H]1C(=O)N(CCCN2CCC[C@H]2CO)CCN1C(=O)Nc1ccc(Cl)c(Cl)c1 [Example 50]
[2] C[C@H]1C(=O)N(CCCN2CCC[C@@H](O)C2)CCN1C(=O)Nc1ccc(Cl)c(Cl)c1 [Example 48]
Which has the higher pIC50, 1 or 2 ? Your choice should be expressed through its label.
1

----------
target: human chemokine receptor 2 isoform B (CCR2) (Homo sapiens); experiment: Calcium mobilization assay (FLIPR, MCP-1 stimulated CHOK1-CCR2B-A5 cells); details: Ca mobilisation assay, CCR2 antagonist activity, inhibition of MCP-1 induced calcium increase
observable: IC50 (nM)

C[C@H]1C(=O)N(CCCN2CCC3(CC3)[C@H](O)C2)CCN1C(=O)Nc1ccc(F)c(Cl)c1 ... 4
C[C@H]1C(=O)N(CCCN2CCC3(CC3)[C@H](O)C2)CCN1C(=O)Nc1ccc(Cl)c(Cl)c1 ... 2

[P] C[C@H]1C[C@H](O)CN(CCCN2CCN(C(=O)Nc3ccc(Cl)c(Cl)c3)[C@@H](C)C2=O)C1
[Q] COC[C@H](CCN1CCC2(CC2)[C@H](O)C1)N1CCN(C(=O)Nc2ccc(Cl)c(Cl)c2)[C@@H](C)C1=O
Parameter metric = IC50. Return the lower-valued option from P and Q . Your choice should be expressed through its label.
Q
(Q: 1 nM, P: 7 nM)
